Target: Histamine H2 receptor (Rattus norvegicus)
Sequence (P25102 whole entry): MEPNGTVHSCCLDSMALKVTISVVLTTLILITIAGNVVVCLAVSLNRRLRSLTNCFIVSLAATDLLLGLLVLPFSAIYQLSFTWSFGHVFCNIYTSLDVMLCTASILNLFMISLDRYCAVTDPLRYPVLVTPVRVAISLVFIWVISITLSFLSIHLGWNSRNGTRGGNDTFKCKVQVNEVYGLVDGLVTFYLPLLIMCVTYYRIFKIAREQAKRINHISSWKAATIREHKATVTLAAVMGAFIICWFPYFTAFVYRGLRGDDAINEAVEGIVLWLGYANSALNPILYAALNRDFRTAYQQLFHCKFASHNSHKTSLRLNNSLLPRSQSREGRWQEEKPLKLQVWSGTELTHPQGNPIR
Experiment: Antagonistic activity by inhibition histamine H2 receptor from rats.
Assay type: functional
Details: read-out: pA2 (converted)
MEASURE_NAME: Kb
Quote the value and follow it with the unit of measurement.

State its Kb on Histamine H2 receptor (Rattus norvegicus): `CN1C(=O)[C@H](NC(=O)Nc2cccc(COC(=O)NCC(=O)NCCCOc3cccc(CN4CCCCC4)c3)c2)N=C(c2ccccc2)c2ccccc21`
794 nM

State its Kb on Histamine H2 receptor (Rattus norvegicus): `CN1C(=O)[C@H](NC(=O)Nc2cccc(CCOC(=O)NCCCC(=O)NCCSCc3csc(N=C(N)N)n3)c2)N=C(c2ccccc2)c2ccccc21`
794 nM

State its Kb on Histamine H2 receptor (Rattus norvegicus): `CN1C(=O)[C@H](NC(=O)Nc2cccc(COC(=O)NCCCC(=O)NCCCOc3cccc(CN4CCCCC4)c3)c2)N=C(c2ccccc2)c2ccccc21`
251 nM

----------
Please provide measured Ratio for the entries that follow.
Biological target: Cholecystokinin receptor (Mus musculus) (UniProt O08786+P56481)
Test: Ratio of IC50(gastrin) to IC50(CCK-A)
Type: protein assay
// no unit string in output, number only

State its Ratio on Cholecystokinin receptor (Mus musculus) (UniProt O08786+P56481): `CN1C(=O)[C@H](NC(=O)Nc2cccc(CCOC(=O)NCCC(=O)NCCCOc3cccc(CN4CCCCC4)c3)c2)N=C(c2ccccc2)c2ccccc21`
156

State its Ratio on Cholecystokinin receptor (Mus musculus) (UniProt O08786+P56481): `Cc1cccc(NC(=O)N[C@@H]2N=C(c3ccccc3)c3ccccc3N(CCOC(=O)NCCCC(=O)NCCCOc3cccc(CN4CCCCC4)c3)C2=O)c1`
34

State its Ratio on Cholecystokinin receptor (Mus musculus) (UniProt O08786+P56481): `Cc1cccc(NC(=O)N[C@@H]2N=C(c3ccccc3)c3ccccc3N(CCOC(=O)NCCCC(=O)NCCSCc3csc(N=C(N)N)n3)C2=O)c1`
289

----------
Target: Gastrin/cholecystokinin type B receptor (Mus musculus, UniProt P56481)
Sequence (P56481 whole entry): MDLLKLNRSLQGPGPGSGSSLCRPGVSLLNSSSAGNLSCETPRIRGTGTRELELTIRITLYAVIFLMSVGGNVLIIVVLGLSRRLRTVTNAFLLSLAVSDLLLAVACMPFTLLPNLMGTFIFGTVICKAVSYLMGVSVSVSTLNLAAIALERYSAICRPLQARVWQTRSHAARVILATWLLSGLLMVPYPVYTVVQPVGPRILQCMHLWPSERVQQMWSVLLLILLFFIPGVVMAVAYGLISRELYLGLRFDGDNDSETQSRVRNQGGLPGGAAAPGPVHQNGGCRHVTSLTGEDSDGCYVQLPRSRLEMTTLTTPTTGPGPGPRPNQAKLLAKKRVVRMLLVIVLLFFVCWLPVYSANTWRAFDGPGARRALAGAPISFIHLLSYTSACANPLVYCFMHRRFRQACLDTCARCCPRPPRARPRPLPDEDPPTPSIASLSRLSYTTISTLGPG
# note: exactly 300 nM is not below, so it is Condition not met; use Condition met for IC50 strictly under it

Please check: IC50 for `CN1C(=O)[C@H](NC(=O)Nc2cccc(COC(=O)NCCCN3CCN(C(=O)CNCCCOc4cccc(CN5CCCCC5)c4)CC3)c2)N=C(c2ccccc2)c2ccccc21` , strictly under 300 nM or not?
Condition not met

Please check: IC50 for `Cc1cccc(NC(=O)N[C@@H]2N=C(c3cccc(OC(=O)NCCCC(=O)NCCCOc4cccc(CN5CCCCC5)c4)c3)c3ccccc3N(C)C2=O)c1` , strictly under 300 nM or not?
Condition not met

Please check: IC50 for `CN1C(=O)[C@H](NC(=O)Nc2cccc(COC(=O)NCCNC(=O)CC(=O)NCCCOc3cccc(CN4CCCCC4)c3)c2)N=C(c2ccccc2)c2ccccc21` , strictly under 300 nM or not?
Condition met

Please check: IC50 for `CN1C(=O)[C@H](NC(=O)Nc2cccc(COC(=O)NCCC(=O)NCCCOc3cccc(CN4CCCCC4)c3)c2)N=C(c2ccccc2)c2ccccc21` , strictly under 300 nM or not?
Condition met

Please check: IC50 for `CN1C(=O)[C@H](NC(=O)Nc2cccc(COC(=O)NCCCC(=O)NCCCOc3cccc(CN4CCCCC4)c3)c2)N=C(c2ccccc2)c2ccccc21` , strictly under 300 nM or not?
Condition met

Please check: IC50 for `CN1C(=O)[C@H](NC(=O)Nc2cccc(CCOC(=O)NCCCC(=O)NCCCOc3cccc(CN4CCCCC4)c3)c2)N=C(c2ccccc2)c2ccccc21` , strictly under 300 nM or not?
Condition met

Please check: IC50 for `Cc1cccc(NC(=O)N[C@@H]2N=C(c3ccccc3)c3ccccc3N(CCOC(=O)NCCCC(=O)NCCSCc3csc(N=C(N)N)n3)C2=O)c1` , strictly under 300 nM or not?
Condition not met

Please check: IC50 for `CN1C(=O)[C@H](NC(=O)Nc2cccc(COC(=O)NCC(=O)NCCCOc3cccc(CN4CCCCC4)c3)c2)N=C(c2ccccc2)c2ccccc21` , strictly under 300 nM or not?
Condition met

----------
Biological target: Cholecystokinin receptor (Mus musculus) (UniProt O08786+P56481)
Assay: Ratio of IC50(gastrin) to IC50(CCK-A)
Type: protein assay
Please provide measured Ratio for the entries that follow.
// no unit string in output, number only

State its Ratio on Cholecystokinin receptor (Mus musculus) (UniProt O08786+P56481): `CN1C(=O)[C@H](NC(=O)Nc2cccc(COC(=O)NCCC(=O)NCCCOc3cccc(CN4CCCCC4)c3)c2)N=C(c2ccccc2)c2ccccc21`
9

State its Ratio on Cholecystokinin receptor (Mus musculus) (UniProt O08786+P56481): `CN1C(=O)[C@H](NC(=O)Nc2cccc(CCOC(=O)NCCCC(=O)NCCCOc3cccc(CN4CCCCC4)c3)c2)N=C(c2ccccc2)c2ccccc21`
217

State its Ratio on Cholecystokinin receptor (Mus musculus) (UniProt O08786+P56481): `CN1C(=O)[C@H](NC(=O)Nc2cccc(COC(=O)NCC(=O)NCCCOc3cccc(CN4CCCCC4)c3)c2)N=C(c2ccccc2)c2ccccc21`
555

State its Ratio on Cholecystokinin receptor (Mus musculus) (UniProt O08786+P56481): `CN1C(=O)[C@H](NC(=O)Nc2cccc(COC(=O)NCCNC(=O)CC(=O)NCCCOc3cccc(CN4CCCCC4)c3)c2)N=C(c2ccccc2)c2ccccc21`
432

State its Ratio on Cholecystokinin receptor (Mus musculus) (UniProt O08786+P56481): `CN1C(=O)[C@H](NC(=O)Nc2cccc(CCOC(=O)NCCCC(=O)NCCSCc3csc(N=C(N)N)n3)c2)N=C(c2ccccc2)c2ccccc21`
35

State its Ratio on Cholecystokinin receptor (Mus musculus) (UniProt O08786+P56481): `CN1C(=O)[C@H](NC(=O)Nc2cccc(COC(=O)NCCCN3CCN(C(=O)CNCCCOc4cccc(CN5CCCCC5)c4)CC3)c2)N=C(c2ccccc2)c2ccccc21`
183

----------
Please provide measured Kb for the entries that follow.
Target: Histamine H2 receptor (Rattus norvegicus)
Assay: Antagonistic activity by inhibition histamine H2 receptor from rats.
Assay type: functional
Settings: read-out: pA2 (converted)
Kindly provide the numeric value in nM only, without the unit symbol.

Any idea what its Kb is? The compound is `CN1C(=O)[C@H](NC(=O)Nc2cccc(CCOC(=O)NCCCC(=O)NCCCOc3cccc(CN4CCCCC4)c3)c2)N=C(c2ccccc2)c2ccccc21`
398

Any idea what its Kb is? The compound is `Cc1cccc(NC(=O)N[C@@H]2N=C(c3cccc(OC(=O)NCCCC(=O)NCCCOc4cccc(CN5CCCCC5)c4)c3)c3ccccc3N(C)C2=O)c1`
501

Any idea what its Kb is? The compound is `CN1C(=O)[C@H](NC(=O)Nc2cccc(COC(=O)NCCC(=O)NCCCOc3cccc(CN4CCCCC4)c3)c2)N=C(c2ccccc2)c2ccccc21`
316

Any idea what its Kb is? The compound is `CN1C(=O)[C@H](NC(=O)Nc2cccc(COC(=O)NCCN3CCN(C(=O)CNCCCOc4cccc(CN5CCCCC5)c4)CC3)c2)N=C(c2ccccc2)c2ccccc21`
631

Any idea what its Kb is? The compound is `CN1C(=O)[C@H](NC(=O)Nc2cccc(COC(=O)NCCCN3CCN(C(=O)CNCCCOc4cccc(CN5CCCCC5)c4)CC3)c2)N=C(c2ccccc2)c2ccccc21`
316

Any idea what its Kb is? The compound is `CN1C(=O)[C@H](NC(=O)Nc2cccc(CCOC(=O)NCCC(=O)NCCCOc3cccc(CN4CCCCC4)c3)c2)N=C(c2ccccc2)c2ccccc21`
1260

Any idea what its Kb is? The compound is `CC(C)(C)OC(=O)NCCCC(=O)NCCSCc1csc(N=C(N)N)n1`
50.1

----------
Please provide measured Ratio for the entries that follow.
Target: Cholecystokinin receptor (Mus musculus) (UniProt O08786+P56481)
Assay: Ratio of IC50(gastrin) to IC50(CCK-A)
Type: protein assay
// no unit string in output, number only

Any idea what its Ratio is? The compound is `Cc1cccc(NC(=O)N[C@@H]2N=C(c3cccc(OC(=O)NCCCC(=O)NCCCOc4cccc(CN5CCCCC5)c4)c3)c3ccccc3N(C)C2=O)c1`
17

Any idea what its Ratio is? The compound is `CN1C(=O)[C@H](NC(=O)Nc2cccc(COC(=O)NCCN3CCN(C(=O)CNCCCOc4cccc(CN5CCCCC5)c4)CC3)c2)N=C(c2ccccc2)c2ccccc21`
106

Any idea what its Ratio is? The compound is `CN1C(=O)[C@H](NC(=O)Nc2cccc(COC(=O)NCCCC(=O)NCCCOc3cccc(CN4CCCCC4)c3)c2)N=C(c2ccccc2)c2ccccc21`
138

----------
Target: Cholecystokinin receptor type A (Mus musculus)
Sequence (O08786 whole entry): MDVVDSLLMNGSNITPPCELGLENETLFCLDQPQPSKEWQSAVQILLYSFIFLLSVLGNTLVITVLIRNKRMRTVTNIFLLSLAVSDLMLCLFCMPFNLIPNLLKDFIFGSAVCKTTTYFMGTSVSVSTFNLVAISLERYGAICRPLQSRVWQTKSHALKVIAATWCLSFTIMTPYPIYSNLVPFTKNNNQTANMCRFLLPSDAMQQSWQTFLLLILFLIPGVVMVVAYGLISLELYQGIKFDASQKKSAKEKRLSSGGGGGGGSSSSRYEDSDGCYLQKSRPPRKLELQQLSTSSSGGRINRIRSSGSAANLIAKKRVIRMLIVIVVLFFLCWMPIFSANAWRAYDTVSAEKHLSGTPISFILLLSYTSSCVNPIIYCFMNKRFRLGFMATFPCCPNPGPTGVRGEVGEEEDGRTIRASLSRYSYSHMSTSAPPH
MEASURE_NAME: log10(IC50) (log10 of the value in µM)
Note the log scale: values are log10 of IC50 expressed in µM.

Any idea what its log10(IC50) is? The compound is `CN1C(=O)[C@H](NC(=O)Nc2cccc(COC(=O)NCCCC(=O)NCCCOc3cccc(CN4CCCCC4)c3)c2)N=C(c2ccccc2)c2ccccc21`
0.56

Any idea what its log10(IC50) is? The compound is `CN1C(=O)[C@H](NC(=O)Nc2cccc(CCOC(=O)NCCCC(=O)NCCCOc3cccc(CN4CCCCC4)c3)c2)N=C(c2ccccc2)c2ccccc21`
0.70

Any idea what its log10(IC50) is? The compound is `CN1C(=O)[C@H](NC(=O)Nc2cccc(COC(=O)NCCCN3CCN(C(=O)CNCCCOc4cccc(CN5CCCCC5)c4)CC3)c2)N=C(c2ccccc2)c2ccccc21`
0.22

Any idea what its log10(IC50) is? The compound is `CN1C(=O)[C@H](NC(=O)Nc2cccc(COC(=O)NCCNC(=O)CC(=O)NCCCOc3cccc(CN4CCCCC4)c3)c2)N=C(c2ccccc2)c2ccccc21`
0.91

Any idea what its log10(IC50) is? The compound is `Cc1cccc(NC(=O)N[C@@H]2N=C(c3cccc(OC(=O)NCCCC(=O)NCCCOc4cccc(CN5CCCCC5)c4)c3)c3ccccc3N(C)C2=O)c1`
0.58

Any idea what its log10(IC50) is? The compound is `CN1C(=O)[C@H](NC(=O)Nc2cccc(CCOC(=O)NCCCC(=O)NCCSCc3csc(N=C(N)N)n3)c2)N=C(c2ccccc2)c2ccccc21`
0.11

Any idea what its log10(IC50) is? The compound is `CN1C(=O)[C@H](NC(=O)Nc2cccc(COC(=O)NCCC(=O)NCCCOc3cccc(CN4CCCCC4)c3)c2)N=C(c2ccccc2)c2ccccc21`
-0.51
